molecular target: VSTB174; assay: peptide blocking ELISA on plate-bound VISTA, peptide 2 ug/mL
Sequence (VH, as listed by the source, chain 1 of 2): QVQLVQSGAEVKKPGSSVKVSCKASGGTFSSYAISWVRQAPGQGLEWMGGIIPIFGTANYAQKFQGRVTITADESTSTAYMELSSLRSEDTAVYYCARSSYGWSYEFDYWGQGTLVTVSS
Sequence (VL, as listed by the source, chain 2 of 2): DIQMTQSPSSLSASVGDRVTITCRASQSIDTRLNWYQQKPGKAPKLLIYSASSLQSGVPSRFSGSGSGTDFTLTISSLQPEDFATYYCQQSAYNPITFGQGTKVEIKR
endpoint label: percent reduction in ELISA signal (%)
One number for each entry, in %.

Check out these entries, answers already filled in.
* PIRNLTFQDLHLHHG (synthetic overlapping peptide from human VISTA) [Spiked Peptide 12 (PIRNLTFQDLHLHHG)] | 52
* HLHHGGHQAANTSHD (synthetic overlapping peptide from human VISTA) [Spiked Peptide 14 (HLHHGGHQAANTSHD)] | 20
* TFQDLHLHHGGHQAA (synthetic overlapping peptide from human VISTA) [Spiked Peptide 13 (TFQDLHLHHGGHQAA)] | 26
* LLDSGLYCCLVVEIR (synthetic overlapping peptide from human VISTA) [Spiked Peptide 22 (LLDSGLYCCLVVEIR)] | 18
* VQTGKDAPSNCVVYP (synthetic overlapping peptide from human VISTA) [Spiked Peptide 28 (VQTGKDAPSNCVVYP)] | 0
* PYSLYVCPEGQNVTL (synthetic overlapping peptide from human VISTA) [Spiked Peptide 2 (PYSLYVCPEGQNVTL)] | 8
* QNVTLTCRLLGPVDK (synthetic overlapping peptide from human VISTA) [Spiked Peptide 4 (QNVTLTCRLLGPVDK)] | 5
* LAQRHGLESASDHHG (synthetic overlapping peptide from human VISTA) [Spiked Peptide 17 (LAQRHGLESASDHHG)] | 21

Parameters: items (list). Returns: percent reduction in ELISA signal for each item.
1. HRVHGAMELQVQTGK (synthetic overlapping peptide from human VISTA) [Spiked Peptide 26 (HRVHGAMELQVQTGK)]
2. CSERRPIRNLTFQDL (synthetic overlapping peptide from human VISTA) [Spiked Peptide 11 (CSERRPIRNLTFQDL)]

Output:
1: 17; 2: 10

Parameters: items (list). Returns: percent reduction in ELISA signal for each item.
1. FKVATPYSLYVCPEG (synthetic overlapping peptide from human VISTA) [Spiked Peptide 1 (FKVATPYSLYVCPEG)]
2. SSSQESENITAA (synthetic overlapping peptide from human VISTA) [Spiked Peptide 31 (SSSQESENITAA)]

Output:
1. 1
2. 15

Parameters: items (list). Returns: percent reduction in ELISA signal for each item.
1. NTSHDLAQRHGLESA (synthetic overlapping peptide from human VISTA) [Spiked Peptide 16 (NTSHDLAQRHGLESA)]
2. HHHSEHRVHGAMELQ (synthetic overlapping peptide from human VISTA) [Spiked Peptide 25 (HHHSEHRVHGAMELQ)]
3. NFSITMRNLTLLDSG (synthetic overlapping peptide from human VISTA) [Spiked Peptide 20 (NFSITMRNLTLLDSG)]

Output:
1. 10
2. 45
3. 20

This collection of values is drawn from patent US20240132593A1.
